# Test system: Plasmodium falciparum
# test_description: Antiplasmodial activity against chloroquine sensitive Plasmodium falciparum W2/Indochina
# Format: functional, organism-based
quantity_measured: pIC50
Bear in mind: pIC50 is minus log10 of a mol/L concentration; give just that figure.

>  <molecule>
CC1C2=CN3CCc4c([nH]c5ccc(O)cc45)C3CC2CC2C3C(CCN2C)c2ccccc2N13 (stereo in doubt; 34)

>  <pIC50>
5.34

$$$$

Input: Which pIC50 value is on record for CC1C2=CN3CCc4c([nH]c5ccc(O)cc45)C3CC2CC2C3C(CCN2C)c2ccccc2N13 (stereo in doubt; 33) ?
Output: 4.90

Data credit: ChEMBL document CHEMBL5096184
